test system: MT4; assay: Inhibition of CD4 antigen expression in MT4 cells; format: functional, cell-based; conditions: Homo sapiens, read-out: IC50
PROPERTY NAME: pIC50
As a rule, pIC50 stands for the negative log10 of the concentration, concentration in M.

Example cases with answers are listed next.
- ITEM SMILES: "C=C1CN(S(=O)(=O)c2ccc(OC)cc2)CCCN(CCC(C)C)CCCN(S(=O)(=O)c2ccc(OC)cc2)C1"
  REPORTED MEASUREMENT: 6.54
- ITEM SMILES: "C=C1CN(S(=O)(=O)c2ccc(Br)cc2)CCCN(C(=O)OCC)CCCN(S(=O)(=O)c2ccc(Br)cc2)C1"
  REPORTED MEASUREMENT: 4.91

Lab note: next molecule to report on.
Looking for the measured pIC50 of C=C1CN(S(=O)(=O)c2ccc(OC)cc2)CCCNCCCN(S(=O)(=O)c2ccc(OC)cc2)C1 , can you help?
5.28

* * *

test system: MT4; assay: Inhibition of CD4 antigen expression in MT4 cells; type: functional, cell-based; conditions: Homo sapiens, read-out: Log IC50 (converted)
PROPERTY NAME: IC50 (nM)
Record the value in nM, omitting the unit from your answer.

Example cases with answers are listed next.
- ITEM SMILES: "C=C1CN(S(=O)(=O)c2ccc(OC)cc2)CCCN(CCC(C)C)CCCN(S(=O)(=O)c2ccc(OC)cc2)C1"
  IC50 (nM): 288
- ITEM SMILES: "C=C1CN(S(=O)(=O)c2ccc(OC)cc2)CCCNCCCN(S(=O)(=O)c2ccc(OC)cc2)C1"
  IC50 (nM): 5250
- ITEM SMILES: "C=C1CN(S(=O)(=O)c2ccc(C)cc2)CCCN(CC2CCCCC2)CCCN(S(=O)(=O)c2cccc3c(N(C)C)cccc23)C1"
  IC50 (nM): 617
- ITEM SMILES: "C=C1CN(S(=O)(=O)c2ccc(OC)cc2)CCCN(Cc2ccccc2)CCCN(S(=O)(=O)c2ccc(OC)cc2)C1"
  IC50 (nM): 219
- ITEM SMILES: "C=C1CN(S(=O)(=O)c2ccc(C)cc2)CCCN(Cc2ccccc2)CCCN(S(=O)(=O)c2cccc3c(N(C)C)cccc23)C1"
  IC50 (nM): 1290

Lab note: next compound to report on.
Query for MT4: what IC50 does the record show for C=C1CN(S(=O)(=O)c2ccc(Br)cc2)CCCN(C(=O)OCC)CCCN(S(=O)(=O)c2ccc(Br)cc2)C1 ?
12300

* * *

test system: Human immunodeficiency virus 1; assay: Antiviral activity against HIV1 NL4.3 in MT4 cells; type: functional, organism-based; conditions: Human immunodeficiency virus 1, NL4.3, MT4
Some compounds, each annotated with its measured pIC50.
As a rule, pIC50 stands for the negative log10 of the concentration, concentration in M.

Example cases with answers are listed next.
- ITEM SMILES: "C=C1CN(S(=O)(=O)c2ccc(OC)cc2)CCCN(CCC(C)C)CCCN(S(=O)(=O)c2ccc(OC)cc2)C1"
  PROPERTY NAME: "pIC50"
  REPORTED MEASUREMENT: 6.20
- ITEM SMILES: "C=C1CN(S(=O)(=O)c2ccc(OC)cc2)CCCN(Cc2ccccc2)CCCN(S(=O)(=O)c2ccc(OC)cc2)C1"
  PROPERTY NAME: "pIC50"
  REPORTED MEASUREMENT: 6.21
- ITEM SMILES: "C=C1CN(S(=O)(=O)c2ccc(C)cc2)CCCN(Cc2ccccc2)CCCN(S(=O)(=O)c2cccc3c(N(C)C)cccc23)C1"
  PROPERTY NAME: "pIC50"
  REPORTED MEASUREMENT: 5.02
- ITEM SMILES: "C=C1CN(S(=O)(=O)c2ccc(C)cc2)CCCN(CC2CCCCC2)CCCN(S(=O)(=O)c2cccc3c(N(C)C)cccc23)C1"
  PROPERTY NAME: "pIC50"
  REPORTED MEASUREMENT: 5.74

Looking for the measured pIC50 of C=C1CN(S(=O)(=O)c2ccc(OC)cc2)CCCNCCCN(S(=O)(=O)c2ccc(OC)cc2)C1 , can you help?
5.20

* * *

Some compounds, each annotated with its measured pIC50.
tested on: MT4; test: Inhibition of CD4 antigen expression in MT4 cells; assay type: functional, cell-based; settings: Homo sapiens, read-out: IC50
As a rule, pIC50 stands for the negative log10 of the concentration, concentration in M.

Example cases with answers are listed next.
- ITEM SMILES: "C=C1CN(S(=O)(=O)c2ccc(C)cc2)CCCN(CC2CCCCC2)CCCN(S(=O)(=O)c2cccc3c(N(C)C)cccc23)C1"
  pIC50: 6.21
- ITEM SMILES: "C=C1CN(S(=O)(=O)c2ccc(C)cc2)CCCN(Cc2ccccc2)CCCN(S(=O)(=O)c2cccc3c(N(C)C)cccc23)C1"
  pIC50: 5.89

Lab note: next compound to report on.
Query for MT4: what pIC50 does the record show for C=C1CN(S(=O)(=O)c2ccc(OC)cc2)CCCN(Cc2ccccc2)CCCN(S(=O)(=O)c2ccc(OC)cc2)C1 ?
6.66
